# target.of.assay: T1, human CD40L, membrane-bound on cells (human, UniProt P29965 1-261)
# T1 sequence: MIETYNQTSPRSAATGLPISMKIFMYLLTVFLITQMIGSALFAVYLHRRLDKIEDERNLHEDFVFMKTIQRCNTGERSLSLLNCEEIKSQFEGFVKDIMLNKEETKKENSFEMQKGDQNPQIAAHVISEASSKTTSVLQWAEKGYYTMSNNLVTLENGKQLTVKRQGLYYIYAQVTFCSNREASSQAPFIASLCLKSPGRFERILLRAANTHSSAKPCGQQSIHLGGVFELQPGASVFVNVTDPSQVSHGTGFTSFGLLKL
# assay.explanation: cell-based or functional assay
readout.label: CHO-hCD40L-driven DC Activation IL-12 EC50 (nM)

# binder, test.value
measured = [
    ("2h572-619-Ctshort Fc (Fc fusion, not shown: a dimerising Fc or GST) EVQLLESGGGLVQPGGSLRLSCAASGFTFNWQLMGWVRQAPGKGLEWVSGIEGPGDVTYYADSVKGRFTISRDNSKNTLYLQMNSLRAEDTAVYYCVKVGKDSRSDYRGQGTLVTVSS", 1.8),
    ("2h572-635 Fc (Fc fusion, not shown: a dimerising Fc or GST) EVQLLESGGGLVQPGGSLRLSCAASGFTFNWELMGWARQAPGKGLEWVSGIEGPGDVTYYADSVKGRFTISRDNSKNTLYLQMNSLRAEDTAVYYCVKVGKDSKSDYRGQGTLVTVSS", 0.445),
    ("2h572-619-N297Qshort Fc (Fc fusion, not shown: a dimerising Fc or GST) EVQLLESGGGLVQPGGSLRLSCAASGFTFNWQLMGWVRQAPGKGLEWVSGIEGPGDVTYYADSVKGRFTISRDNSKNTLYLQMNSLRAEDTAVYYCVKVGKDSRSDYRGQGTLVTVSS", 1.2),
    ("2h719-2 Fc (Fc fusion, not shown: a dimerising Fc or GST) EVQLLESGGGLVQPGGSLRLSCAASGFTFKRYEMMWVRQAPGKGLEWVSSISSDGSFTYYADSVKGRFTISRDNSKNTLYLQMNSLRAEDTAVYYCAEPFTEFDYWGHGTLVTVSS", 0.13),
]
